Provide the reported solubility of each item.
Test: Aqueous solubility of the compound
Assay type: physicochemical
Settings: buffer

IN: State the recorded solubility for this entry: CCCn1cnc(Cc2c(Cl)c(Cl)cc3nc(O)c(O)nc23)c1
OUT: > 10000 µg/mL

IN: Now the same for CCC(c1c(Cl)c(Cl)cc2nc(O)c(O)nc12)n1cnnc1 (configuration not stated)
OUT: > 5000 µg/mL

* * *

Provide the reported pKa of each item.
Test: Dissociation constant, pKa of the compound
Assay type: physicochemical

IN: State the recorded pKa for this entry: N#Cc1ccc2ccc(=O)n(CCN3CC[C@H](NCc4cc5c(cn4)OCCO5)[C@H](F)C3)c2c1
OUT: 4.47

IN: Now the same for N[C@H](Cn1c(=O)cnc2ccc(F)cc21)[C@H]1CC[C@H](NCc2ncc3c(n2)NC(=O)CO3)CC1
OUT: 7.28

IN: Now the same for COc1ccc2ncc(=O)n(CCN3CCC(NCc4ccc5c(n4)NC(=O)CO5)CC3)c2c1
OUT: 5.56

IN: Now the same for COc1cnc2ccc(=O)n(C[C@@H](N)[C@H]3CC[C@H](NCc4ccc5c(n4)NC(=O)CO5)CC3)c2c1
OUT: 7.66

The reported numbers originate from ChEMBL document CHEMBL5113380.
